System: HOP-62
Assay: NCI tumour cell line growth inhibition, 48 h
The source made the active and inactive calls. No stated cut-off is given here; in the data, active = GI50 up to about 1.1 µM and inactive = higher.
Outcomes: active, inactive

INSERT INTO assay_data (molecule, answer_label) VALUES
  ('O=[N+]([O-])C=C(c1ccc(Cl)cc1)c1ccc(Cl)cc1', 'inactive'),
  ('COc1cc2c(c(OC)c1OC)-c1ccc(OC)c(=O)cc1C(NC(=O)c1ccc(N=[N+]=[N-])cc1)CC2 (stereo not given)', 'active'),
  ('C/C=C1/CN2CCC34c5ccccc5N(C)C23C2CC1C4(C(=O)OC)C(O)O2 (stereo not given)', 'inactive'),
  ('O=c1[nH]c(=O)n(C2CC(O)C(CO)O2)cc1C#Cc1ccc(F)cc1 (stereo not given)', 'inactive'),
  ('Oc1nc2ccccc2c2oc3ccccc3c12', 'inactive');
